Data credit: PubChem BioAssay (NCI)

assay: NCI Yeast Anticancer Drug Screen. Data for the rad50 strain (AID 155);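 further: 0% = growth of vehicle-only cultures of the same strain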; conditions: S. cerevisiae rad50 strain growth inhibition; at 50.0 µM (retest, dose inferred, filed as 5.0); hits give high values
About 79,000 compounds went through this panel and 15% of them were active in at least one assay; those are over-represented in the sample as a whole.
Classify as follows. Reported growth inhibition greater than or equal to 90%: 1.0. Reported growth inhibition below: 0.0.

> print(dat)
                                    molecule  class.name
 1  Nc1ccc(O)c2c1C(=O)c1ccccc1C2O (stereo unspecified)         1.0
 2             Cc1ccc(C(=O)/C=C/c2ccccc2)cc1         0.0
 3  COc1ccc(C2c3cc4c(cc3OC(O)(CO)C2C(=O)O)OCO4)cc1 (stereo unspecified) (tested in a mixture with another compound)         0.0
 4                       Oc1cccc2c(Br)ccnc12         1.0
 5  CC(=O)OC1CCC2(C)C(CCC3C4=CCC(C5COC(=O)C5)C4(C)CCC32)C1 (stereo unspecified)         0.0
 6            NC(=S)C(=Nc1ccccc1F)Nc1ccccc1F         0.0
 7  CCOC(=O)C[P+](c1ccc(C)cc1)(c1ccc(C)cc1)c1ccc(C)cc1         1.0
 8  OC(CN1CCCCC1)c1ccc2c(ccc3ccccc32)c1 (stereo unspecified)         0.0
 9  CCOC(=O)/C(=C\c1cccc(C(F)(F)F)c1)P(=O)(OCC)OCC         0.0
10            O=C(O)CC/C(=N\Nc1ccccc1)C(=O)O         1.0
11           FC(F)(F)c1ccccc1NC(=S)SCc1ccco1         0.0

====

assay: NCI Yeast Anticancer Drug Screen. Data for the rad50 strain (AID 155);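 further: 0% = growth of vehicle-only cultures of the same strain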; settings: S. cerevisiae rad50 strain growth inhibition; at 50.0 µM
About 79,000 compounds went through this panel and 15% of them were active in at least one assay; those are over-represented in the sample as a whole. Activity calls are given as the source filed them. Cut-off read from the data, not from the text of the source: active = growth inhibition above about 70%; inactive = the rest.
Possible outcomes: True = active, False = inactive

> print(dat)
                               given.smiles  class.name
1  Cc1ccc(S(=O)(=O)N/N=C/c2oc(-c3cccc([N+](=O)[O-])c3)c(-c3cccc([N+](=O)[O-])c3)c2[N+](=O)[O-])cc1        True
2                   N#Cc1ccccc1[N+](=O)[O-]       False
3  O=C(Sc1c(-c2ccccc2)c(=O)n(-c2ccccc2)c(=S)n1-c1ccccc1)c1cccs1        True
4  COC(=O)CCC(=O)NCCc1ccc2c([nH]c3ccccc32)c1C       False
5  COc1ccc(/C=C2\C(=O)N(C)C(=O)c3cc(OC)c(OC)cc32)cc1OC       False

====

assay: NCI Yeast Anticancer Drug Screen. Data for the rad50 strain (AID 155);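 further: 0% = growth of vehicle-only cultures of the same strain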; conditions: S. cerevisiae rad50 strain growth inhibition; at 50.0 µM (retest, dose inferred, filed as 5.0)
Compounds without any hit were thinned out: in the full panel of roughly 79,000, 15% have a hit. Calls of active or inactive are those of the source. Rule as the data show it: active = growth inhibition above about 70%; inactive = the rest.
Outcomes: true (1) for active, false (0) for inactive

> print(dat)
                                    compound  class.name
 1  O=C(COc1ccc2ccccc2c1)NC1c2ccccc2Oc2ccccc21    true (1)
 2         Cc1cc(N)c(C)c2c1[nH]c1ccc(Br)cc12    true (1)
 3                    CSC(=S)N/N=C(/C)CC(C)C    true (1)
 4  CCCCCCCCCCCC(=O)Oc1c(Cl)c(Cl)c(C#N)c(Cl)c1Cl   false (0)
 5     N#Cc1c(Cl)nsc1-c1ccc([N+](=O)[O-])cc1   false (0)
 6  COc1ccc(C2COc3cc(O)c(O)cc3C2)cc1OC (configuration not stated)   false (0)
 7  CCN(CC)CCNc1ccc(C)c2sc3ccc(OC)cc3c(=O)c12    true (1)
 8  O=C(/C=C/c1ccccc1)CCN1CCC2CCC(C2)C1 (configuration not stated)   false (0)
 9           Cc1cccc(/C=N/NC(=S)Nc2ccccc2)n1    true (1)
10  CC1(C)C(=O)N(CCCCCCN2C(=O)C(C)(C)c3ccccc32)c2ccccc21   false (0)
11    CCN(CC)CCNc1ccc2nnn3c4ccccc4c(=O)c1c23   false (0)
12  COc1ccc(-c2cc3ccccc3c(=O)n2Cc2ccccc2)cc1   false (0)

====

Parameter: growth inhibition. Scope: all listed entries.
experiment: NCI Yeast Anticancer Drug Screen. Data for the bub3 strain (AID 167); details: S. cerevisiae bub3 mutant strain, at 50.0 µM (retest, dose inferred, filed as 5.0), hits give high values
The panel holds about 79,000 compounds, 15% with a hit somewhere; the sample as a whole holds those more often.
Measure: growth inhibition (%)

> print(dat)
                                    molecule  reading.unit  test.result
 1  CSC(=S)n1nc(-c2cccs2)c(N=Nc2ccc(Cl)cc2)c1C(F)(F)F             %           87
 2  CCOC(=O)c1[nH]cnc1/N=N/c1nc(O)c(C#N)[nH]1             %           99
 3  CCCCc1c2c(nc3c1CCC/C3=C\c1ccccc1)C(=O)C(CN(C)C)CC2 (stereo unspecified)             %           95
 4  CCCN(CCC)C(=O)c1nc(N)nc(-c2ccc(OC)cc2)c1-c1ccc(OC)cc1             %          -10
 5  CCCCC(CC)CNc1ncnc2c1cnn2C (stereo unspecified)             %           96
 6             c1ccc2c(c1)C[N+]1(CCCCCCC1)C2             %           36
 7  CC(=O)Oc1ccc(N=[N+]([O-])c2ccc(OC(C)=O)cc2)cc1             %            2
 8                        CCNc1cc(SC)nc(N)n1             %           -1
 9  O=C1CN(/N=C\c2ccc([N+](=O)[O-])o2)C(=O)N1             %           26
10     O=C1C(C=NC(=S)c2ccccc2)=C(O)c2ccccc21             %           81
11   O=c1c2ccccc2sc2c1c(N(CCO)CCO)cc1ccccc12             %           93

====

experiment: NCI Yeast Anticancer Drug Screen. Data for the sgs1 mgt1 strain (AID 161);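 further: 0% = growth of cultures given vehicle only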; conditions: S. cerevisiae sgs1 mgt1 strain, at 50.0 µM, hits give high values
Compounds without any hit were thinned out: in the full panel of roughly 79,000, 15% have a hit.
Measure: growth inhibition (%)

> print(dat)
                                    compound  test.result
 1  O=C(Nc1ccc(Cl)c(Cl)c1Cl)Oc1c(Cl)c(Cl)c(Cl)c(Cl)c1Cl         99.6
 2  NC1NCCC(=O)N1CCc1c[nH]c2ccccc12 (centres undefined)         54.4
 3  O=[N+]([O-])c1ccc(-c2nc(/C=N/N3CCCCC3)cs2)o1         84.5
 4  CCOc1c(N=Nc2ccc(OC)cc2)c(-c2ccccc2)nn1C(N)=S         25.8
 5  Cc1cccc2c1Oc1ccccc1C2N1C(=O)/C(=C/c2cccs2)SC1=S (centres undefined)           88
 6  O=S(=O)(Nc1ccc(NS(=O)(=O)c2ccccc2)c(N2N=N2)c1)c1ccccc1         88.9
 7  CC(=O)OC1CCC2(C)C(CCC3C4=CCC(C5COC(=O)C5)C4(C)CCC32)C1 (centres undefined)         84.7
 8  Cc1cc(Cl)nc2ccc(Cc3ccc4nc(Cl)cc(C)c4c3)cc12        -19.6
 9       COc1ccc(NC(=S)N/N=C/c2cccc(C)n2)cc1         86.5
10  CC(C)C1=C(O)C2=C(C(=O)C1=O)C1(C)CCCC(C)(C)C1C(O)C2OC=O (centres undefined)         93.5
11              Cc1ccc(-[n+]2cc([O-])on2)cc1         -5.5
12  O=C(O)C1C(C(=O)O)C2C(=O)C=CC1N2Cc1ccccc1 (centres undefined)         78.5
13  CCCCN1CCN(c2ccc([N+](=O)[O-])c3no[n+]([O-])c23)CC1         90.2
14                     O=S1(=O)CC=C1c1ccccc1         94.8
15                     NC(=S)NNC(=O)c1cccnc1         45.6
16  O=C(CSc1nnc(Cc2ccccc2)o1)Nc1ccc(Cl)cc1[N+](=O)[O-]         76.5
17  O=C1C(N=Nc2ccccc2)=C(O)C2C3C=CC(C3)C12 (centres undefined)           95
18          C[N+](C)(C)CCN(Cc1cccs1)c1ccccn1        -37.8
19       CCC(C(=O)CCN(C)C)(c1ccccc1)c1ccccc1         99.3
20  CCCCCCCCCCCCCCCCP(=O)([O-])OCC[N+](C)(C)C         89.2
21       Clc1ccc(CN2COc3c(ccc4cccnc34)C2)cc1         99.4
22               CCCCCN(CCCCC)C(=S)Nc1ccccc1           77
23          CCOc1nc(N)nc(C)c1N=Nc1ccc(Br)cc1         22.2
24  CCC(C)OC(=O)c1cccc(C)c1 (centres undefined)        -5.05
25      COc1ccc2c(c1)CCCN2CCCCCCCCCCN1CCCCC1         80.8
26            O=C(O)CC/C(=N\Nc1ccccc1)C(=O)O         97.4
27                          O=C1CCCCC1=C(I)I         68.8
28  CCCN(CCC)C(=O)c1nc(N)nc(-c2ccc(OC)cc2)c1-c1ccc(OC)cc1         29.4
29             CCOC(=O)C(=Cc1ccccc1)C(=O)OCC         92.6
30                   CCOC(=O)C(CCOC)C(=O)OCC         43.9
31    CSc1c(C)n([O-])c2cc(Cl)c(Cl)cc2[n+]1=O         85.4
32  Cc1c(N=Nc2ccc(Br)cc2)c(-c2ccccc2)nn1C(=S)S         90.5
33        CC(=O)Oc1cccc2c1C(=O)C(Br)(Br)CCC2         88.5
34                          Cc1cc(O)ccc1SC#N         79.9
35  O=[N+]([O-])c1ccc(SC(=S)N2CCCCC2)c([N+](=O)[O-])c1         99.2
36  O=S(=O)(CCNCCCCC1CCCCC1)SCCNCCCCC1CCCCC1         55.1
37         CN(C)CCCN=c1c2ccccc2n(O)c2ccccc12        -32.5
38  CC1(C)C2CCC(C2)C1OC(=O)c1ccccc1C(=O)O (centres undefined)        -6.05
39                           CN1CCN(CCCN)CC1        -29.9
40  CC1OC(c2ccc3c(c2)OCO3)OC1C (centres undefined)         24.6
41  O=C1/C(=C/c2ccc(Cl)cc2)CSC/C1=C\c1ccc(Cl)cc1         9.35
42        O=C1c2ccc(Cl)cc2C(=O)c2cc(Cl)ccc21         65.3
43  CC(=O)Nc1nc(Cl)c2ncn(C3CC(OC(=O)c4ccc(C)cc4)C(COC(=O)c4ccc(C)cc4)O3)c2n1 (centres undefined)         60.1
44   O=C1CNC(=O)c2cc(N=Cc3cc(Br)ccc3O)ccc2N1         93.5
45              O=S(=O)(O)CNc1cc(Cl)cc(Cl)c1          2.3
46                        Clc1ccc2ns[s+]c2c1         80.6
47  Cc1c(-c2ccc(C(=N)N)cc2)oc(-c2ccc(C(=N)N)cc2)c1C         88.1
48        NCCCNCc1c2ccccc2c(CNCCCN)c2ccccc12         58.9
49  CC(C)(C)C(=O)Nc1ccc2c(c1)C(=O)c1ccccc1C2=O         80.7
